B1: TPR 5TU (parent)
chain: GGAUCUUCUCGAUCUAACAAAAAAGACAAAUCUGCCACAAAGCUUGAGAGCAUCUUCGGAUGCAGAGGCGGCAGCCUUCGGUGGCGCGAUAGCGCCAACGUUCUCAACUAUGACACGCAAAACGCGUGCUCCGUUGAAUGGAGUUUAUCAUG

Variants of: B1
Assay: polymerase ribozyme fitness, log enrichment relative to wild type (log ratio); higher = more active; in vitro selection for triplet polymerase activity
This sample holds only a part of the variants without activity.
For each entry below, report its polymerase ribozyme fitness (log ratio) value.
Reply with the value as a number alone.

For the variant A52G U53A A119U G126C , give its reported polymerase ribozyme fitness (log ratio).
0.147

For the variant A52G C85G , give its reported polymerase ribozyme fitness (log ratio).
-2.16

For the variant C14A A19U A21C A60G , give its reported polymerase ribozyme fitness (log ratio).
-1.8

For the variant U33G G50U U90G C96G , give its reported polymerase ribozyme fitness (log ratio).
-3.98

For the variant G83U G140U G152U , give its reported polymerase ribozyme fitness (log ratio).
-3.93

For the variant U104A G143A , give its reported polymerase ribozyme fitness (log ratio).
-1.63

For the variant A3U C105G , give its reported polymerase ribozyme fitness (log ratio).
-1.75

For the variant A17G G84A A147C , give its reported polymerase ribozyme fitness (log ratio).
-0.273

For the variant A12G A17U A49G A60G A91G , give its reported polymerase ribozyme fitness (log ratio).
-2.9

For the variant U13C A20C A21C G58A U82A U101A , give its reported polymerase ribozyme fitness (log ratio).
-1.36

For the variant A30U G94C A150U , give its reported polymerase ribozyme fitness (log ratio).
-3.55

For the variant A73G U134C , give its reported polymerase ribozyme fitness (log ratio).
0.53

For the variant G50C C87U A122U , give its reported polymerase ribozyme fitness (log ratio).
-3.11

For the variant A26U U53A , give its reported polymerase ribozyme fitness (log ratio).
-1.58

For the variant A24U G92U , give its reported polymerase ribozyme fitness (log ratio).
0.213

For the variant A20G C36U A119U A120C C129U A142G , give its reported polymerase ribozyme fitness (log ratio).
-4.1

For the variant A17C A60U G81U G83U G86U C93A , give its reported polymerase ribozyme fitness (log ratio).
-0.433

For the variant C14G C57A , give its reported polymerase ribozyme fitness (log ratio).
-1.52

For the variant A20U C54G , give its reported polymerase ribozyme fitness (log ratio).
-2.64

For the variant A22U G50U , give its reported polymerase ribozyme fitness (log ratio).
1.37
